molecular target: KPC-2 L169P (Klebsiella pneumoniae, UniProt Q9F663, L168P); construct: 6xHis (C); BL21(DE3) pLys is named only for wild type and D179Y); experiment: Steady-state Ki with nitrocefin as substrate (method of Waley); conditions: NCF substrate, 10 min preincubation, 37°C
reported.metric: Ki (nM)
Enter your answer as a number in nM; do not include the unit.

Just so you know, measured Ki for O=C(O)C[C@@H]1CC[C@H](NC(=O)Cc2cccs2)B(O)O1 [Vaborbactam, vaborbactam] came out at 190

====

biological target: KPC-2 (Klebsiella pneumoniae, UniProt Q9F663)
reported.metric: pIC50
Reminder that pIC50 is minus the log10 of a molar concentration.

Noted pIC50 for `O=C(O)C[C@@H]1CC[C@H](NC(=O)Cc2cccs2)B(O)O1` , tested on KPC-2 (Klebsiella pneumoniae, UniProt Q9F663): 6.03
